The values you see were collected from PubChem BioAssay AID1224858.

# Assay Notes: Confirmation assay for measurement of the activity of small molecule inhibitors on Zika virus induced Caspase-3 activity in human astrocytes
# Protocol Conditions: ZIKV-induced caspase-3/7 luminescence, 6 h; series mostly up to 46.1 µM
Results filed as inconclusive are left out. Calls of active or inactive are those of the source. The call rests on the fitted dose curve; in most records, active means well fitted inhibition curve with a large enough effect; inconclusive means small, poorly fitted or top-dose-only effect; inactive means no such curve, though single readings can be large or run the other way.
Measure Name: Potency

CC(C)[N+](C)(CCC(C(N)=O)(c1ccccc1)c1ccccc1)C(C)C; inactive
O=c1c2ccccc2[se]n1-c1ccccc1; 7.74 µM (active)
Cc1ccc([N+](=O)[O-])[c]2c1[O][Hg]2; 7.74 µM (active)
Oc1ccc([C@H]2CNCc3c2ccc(O)c3O)cc1O; inactive
O=C1CCC[C@@H]2[C@H]3CCCN4CCC[C@@H](CN12)[C@@H]34; inactive
O=S(=O)(CC1CS1)c1ccc(Oc2ccccc2)cc1 (stereo not drawn); inactive
CC(C)N[C@@H]1CCn2c(=O)[nH]c3cccc(c32)[C@@H]1O; inactive

Now, please, on to the next compound.
Lookup result for CC(O)CN1CCN(CC(=O)[O-])CCN(CC(=O)[O-])CCN(CC(=O)[O-])CC1.[Gd+3] (stereo not drawn) ; measured Potency: inactive
